Source of measurements: paper PMC5889090

# Protocol notes: In vitro toxicity against HepG2 cell line
# Assay conditions: human
Test readout: IC50

CCN1CCc2c(sc(NC(=O)Nc3ccc(Cl)cc3)c2C(N)=O)C1.Cl: > 300 µM

Alright, here's another compound for you.
*Q* Quick check: IC50 of CC1(C)Cc2c(sc(NC(=O)Nc3ccc(Cl)cc3)c2C(N)=O)C(C)(C)N1.Cl ?
*A* > 300 µM

* * *

Reported IC50 is given for each of the following compounds.
# Assayed target: hERG ion channel (Homo sapiens, UniProt Q12809)
# Sequence (Q12809 whole entry): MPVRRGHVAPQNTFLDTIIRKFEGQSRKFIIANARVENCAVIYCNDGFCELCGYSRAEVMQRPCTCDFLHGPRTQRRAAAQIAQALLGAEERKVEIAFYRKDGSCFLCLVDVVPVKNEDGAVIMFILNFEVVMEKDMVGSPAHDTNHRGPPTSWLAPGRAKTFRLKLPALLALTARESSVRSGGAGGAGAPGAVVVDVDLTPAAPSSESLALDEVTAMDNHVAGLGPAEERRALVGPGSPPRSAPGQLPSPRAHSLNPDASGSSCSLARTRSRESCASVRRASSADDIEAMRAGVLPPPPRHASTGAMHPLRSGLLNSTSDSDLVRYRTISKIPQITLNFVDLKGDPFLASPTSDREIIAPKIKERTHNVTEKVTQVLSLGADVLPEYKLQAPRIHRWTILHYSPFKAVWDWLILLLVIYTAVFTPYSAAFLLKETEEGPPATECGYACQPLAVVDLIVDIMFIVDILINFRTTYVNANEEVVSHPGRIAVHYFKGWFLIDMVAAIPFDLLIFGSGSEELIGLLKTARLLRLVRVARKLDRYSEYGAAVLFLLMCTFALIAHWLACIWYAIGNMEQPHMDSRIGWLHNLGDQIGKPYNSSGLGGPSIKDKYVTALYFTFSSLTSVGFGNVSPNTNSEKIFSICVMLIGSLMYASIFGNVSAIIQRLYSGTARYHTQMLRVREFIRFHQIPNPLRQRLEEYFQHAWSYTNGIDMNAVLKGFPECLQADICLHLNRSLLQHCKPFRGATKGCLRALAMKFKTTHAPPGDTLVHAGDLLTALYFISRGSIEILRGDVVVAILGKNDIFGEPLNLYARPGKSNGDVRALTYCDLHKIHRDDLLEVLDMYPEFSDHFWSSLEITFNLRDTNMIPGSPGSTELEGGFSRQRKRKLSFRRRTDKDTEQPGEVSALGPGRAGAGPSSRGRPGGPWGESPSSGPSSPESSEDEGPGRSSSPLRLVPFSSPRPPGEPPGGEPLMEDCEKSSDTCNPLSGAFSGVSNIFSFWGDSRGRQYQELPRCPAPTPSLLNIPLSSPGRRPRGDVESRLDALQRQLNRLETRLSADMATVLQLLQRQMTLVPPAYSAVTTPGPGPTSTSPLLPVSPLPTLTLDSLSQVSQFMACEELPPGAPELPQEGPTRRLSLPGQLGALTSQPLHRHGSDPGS

NC(=O)c1c(NC(=O)Nc2ccc(Cl)cc2)sc2c1CCN(CC1CCC1)C2: 0.73 µM
NC(=O)c1c(NC(=O)Nc2ccc(Cl)cc2)sc2c1CCN(CC1CC1)C2: 2.67 µM
CC(C)(C)OC(=O)CCCN1CCc2c(sc(NC(=O)Nc3ccc(Cl)cc3)c2C(N)=O)C1: 3.84 µM

*Q* Record CC(C)C[N+]1(C)CCc2c(sc(NC(=O)Nc3ccc(Cl)cc3)c2C(N)=O)C1 (centres unmarked) : what is its IC50 with hERG ion channel (Homo sapiens, UniProt Q12809)?
*A* 9.75 µM

*Q* How about this compound: C[N+]1(CC2CCCCC2)CCc2c(sc(NC(=O)Nc3ccc(Cl)cc3)c2C(N)=O)C1 (centres unmarked)
*A* > 30 µM
